system: ACHN; assay: NCI tumour cell line growth inhibition, 48 h
Activity calls are given as the source filed them. No stated cut-off is given here; in the data, active = GI50 up to about 1.1 µM and inactive = higher.
Outcome codes: active, inactive

[
  {
    "COMPOUND": "NC(=S)NS(=O)(=O)c1ccc(Cl)cc1",
    "TEST SYSTEM": "ACHN",
    "CLASS ASSIGNMENT": "inactive"
  },
  {
    "COMPOUND": "Cc1cccc(-c2cc(O)c3cccnc3n2)c1",
    "TEST SYSTEM": "ACHN",
    "CLASS ASSIGNMENT": "inactive"
  },
  {
    "COMPOUND": "C=CCc1c(Cl)nc(Cl)nc1Cl",
    "TEST SYSTEM": "ACHN",
    "CLASS ASSIGNMENT": "active"
  },
  {
    "COMPOUND": "NCCNCC(O)CO (configuration not stated)",
    "TEST SYSTEM": "ACHN",
    "CLASS ASSIGNMENT": "inactive"
  },
  {
    "COMPOUND": "O=C(/C=C/c1ccc(-c2ccccc2)cc1)c1ccccc1",
    "TEST SYSTEM": "ACHN",
    "CLASS ASSIGNMENT": "inactive"
  },
  {
    "COMPOUND": "Cc1ccc2c(=O)cc(-c3cccc(F)c3)[nH]c2n1",
    "TEST SYSTEM": "ACHN",
    "CLASS ASSIGNMENT": "active"
  },
  {
    "COMPOUND": "S=c1oc(CCCCCCCCc2nn(CNc3ccccc3)c(=S)o2)nn1CNc1ccccc1",
    "TEST SYSTEM": "ACHN",
    "CLASS ASSIGNMENT": "inactive"
  },
  {
    "COMPOUND": "CCOC(=O)C1=C(C)N(NC(N)=O)C2(O)CCCC(=O)C12C (configuration not stated)",
    "TEST SYSTEM": "ACHN",
    "CLASS ASSIGNMENT": "inactive"
  },
  {
    "COMPOUND": "O=C1c2c(F)c(F)c(F)c(F)c2SC2=NCCN12",
    "TEST SYSTEM": "ACHN",
    "CLASS ASSIGNMENT": "inactive"
  },
  {
    "COMPOUND": "BrCCCCCOc1ccc(-c2c3ccccc3c(-c3ccc(OCCCCCBr)cc3)c3ccccc23)cc1",
    "TEST SYSTEM": "ACHN",
    "CLASS ASSIGNMENT": "inactive"
  },
  {
    "COMPOUND": "COc1ccc(N2C(=O)C3c4[nH]c5ccc(F)cc5c4C4CCC(c5ccccc5)CC4C3C2=O)cc1 (configuration not stated)",
    "TEST SYSTEM": "ACHN",
    "CLASS ASSIGNMENT": "inactive"
  },
  {
    "COMPOUND": "CC(=O)O[C@H]1C(=O)[C@@]2(C)[C@H]([C@H](OC(=O)c3cccc(C(F)(F)F)c3)[C@]3(O)C[C@H](OC(=O)[C@H](O)[C@@H](NC(=O)c4ccccc4)c4ccccc4)C(C)=C1C3(C)C)[C@]1(OC(C)=O)CO[C@@H]1C[C@@H]2O",
    "TEST SYSTEM": "ACHN",
    "CLASS ASSIGNMENT": "active"
  },
  {
    "COMPOUND": "Cc1cnc2sn(-c3ccc([N+](=O)[O-])cc3)c(=O)c2c1",
    "TEST SYSTEM": "ACHN",
    "CLASS ASSIGNMENT": "inactive"
  },
  {
    "COMPOUND": "O=C(O)CCc1nn2c(nc1=O)sc1ccc3ccccc3c12",
    "TEST SYSTEM": "ACHN",
    "CLASS ASSIGNMENT": "inactive"
  },
  {
    "COMPOUND": "CCOc1ccc(N2C(=O)NC3(c4ccccc4)N(C)C(=O)N(C)C23c2ccccc2)cc1 (configuration not stated)",
    "TEST SYSTEM": "ACHN",
    "CLASS ASSIGNMENT": "inactive"
  },
  {
    "COMPOUND": "Cc1ccc(S(=O)(=O)N[C@H](C(=O)O)c2ccccc2)cc1",
    "TEST SYSTEM": "ACHN",
    "CLASS ASSIGNMENT": "inactive"
  },
  {
    "COMPOUND": "c1ccc(Nc2nnc(Cn3ccc4ccccc43)s2)cc1",
    "TEST SYSTEM": "ACHN",
    "CLASS ASSIGNMENT": "inactive"
  },
  {
    "COMPOUND": "O=C1c2ccccc2C(=O)c2c1ccc1c2OCO1",
    "TEST SYSTEM": "ACHN",
    "CLASS ASSIGNMENT": "inactive"
  },
  {
    "COMPOUND": "COc1ccc2nc(N/N=C/C(C)=N/Nc3cc(C)c4cc(OC)ccc4n3)cc(C)c2c1",
    "TEST SYSTEM": "ACHN",
    "CLASS ASSIGNMENT": "inactive"
  },
  {
    "COMPOUND": "Fc1cc(-c2ncc(Cl)cc2Cl)c2cccccc1-2",
    "TEST SYSTEM": "ACHN",
    "CLASS ASSIGNMENT": "inactive"
  },
  {
    "COMPOUND": "CS(=O)(=O)C(=Cc1ccccc1Cl)S(C)(=O)=O",
    "TEST SYSTEM": "ACHN",
    "CLASS ASSIGNMENT": "inactive"
  },
  {
    "COMPOUND": "Nc1nc2cc(COc3ccc(C(=O)O)cc3)ccc2nc1-c1ccccc1",
    "TEST SYSTEM": "ACHN",
    "CLASS ASSIGNMENT": "inactive"
  }
]

====

tested on: NCI-H460; assay: NCI tumour cell line growth inhibition, 48 h
Calls of active or inactive are those of the source. Rule as the data show it: active = GI50 up to about 1.1 µM and inactive = higher.
Outcome codes: active, inactive

[
  {
    "MOLECULE": "CC(=O)NNc1nc(C)c(C(=O)NNC(=O)C(=O)Nc2ccc([N+](=O)[O-])cc2[N+](=O)[O-])s1",
    "CLASS ASSIGNMENT": "inactive"
  },
  {
    "MOLECULE": "O=c1oc2c(ccc3ccccc32)cc1C1=CSC2=NCCN12",
    "CLASS ASSIGNMENT": "inactive"
  },
  {
    "MOLECULE": "O=C(/C=C/c1ccc(-c2ccccc2)cc1)c1ccccc1",
    "CLASS ASSIGNMENT": "inactive"
  },
  {
    "MOLECULE": "O=C1NN(c2ccccc2)C(=O)C2C3c4ccccc4C(c4ccccc43)C12 (stereo not drawn)",
    "CLASS ASSIGNMENT": "inactive"
  },
  {
    "MOLECULE": "CCOC(=O)c1sc(=S)n(-c2ccc(Cl)cc2)c1-n1cc(-c2ccccc2)c(C#N)c1N",
    "CLASS ASSIGNMENT": "inactive"
  },
  {
    "MOLECULE": "Cc1cc(N(CCC#N)CCC#N)ccc1C(/N=N\\c1ccc(C(=O)O)cc1)=N\\NC(=O)c1cc(Cl)ccc1O",
    "CLASS ASSIGNMENT": "inactive"
  },
  {
    "MOLECULE": "O=C(NCc1cccnc1)C(=O)NCc1cccnc1",
    "CLASS ASSIGNMENT": "inactive"
  },
  {
    "MOLECULE": "c1ccc(Nc2nnc(Cn3ccc4ccccc43)s2)cc1",
    "CLASS ASSIGNMENT": "inactive"
  },
  {
    "MOLECULE": "CS(=O)(=O)C(=Cc1ccccc1Cl)S(C)(=O)=O",
    "CLASS ASSIGNMENT": "inactive"
  },
  {
    "MOLECULE": "Cc1ccc(Nc2cn(COCc3ccccc3)c(=O)[nH]c2=O)cc1",
    "CLASS ASSIGNMENT": "inactive"
  },
  {
    "MOLECULE": "Cc1cccc(/C=N/NC(=S)N2CCCC2)n1",
    "CLASS ASSIGNMENT": "active"
  },
  {
    "MOLECULE": "CC1C(OS(=O)(=O)c2ccc3nc(S)sc3c2)CC2C3(C)CCC2(C(C)C(=O)O)C(O)C13 (stereo not drawn)",
    "CLASS ASSIGNMENT": "inactive"
  },
  {
    "MOLECULE": "COc1ccc2[nH]c3c(c2c1)CCc1c(OC)cccc1-3",
    "CLASS ASSIGNMENT": "inactive"
  },
  {
    "MOLECULE": "CC(=O)NNC1=NN(C(C)=O)C2(S1)C(=O)Nc1ccc(C)cc12 (stereo not drawn)",
    "CLASS ASSIGNMENT": "inactive"
  },
  {
    "MOLECULE": "Cc1cnc2sn(-c3ccc([N+](=O)[O-])cc3)c(=O)c2c1",
    "CLASS ASSIGNMENT": "inactive"
  },
  {
    "MOLECULE": "CCCC1N2CCCCC2[C@@H]2c3[nH]c4ccccc4c3CCN12 (stereo partly drawn)",
    "CLASS ASSIGNMENT": "inactive"
  },
  {
    "MOLECULE": "CCCN(CCC)C1CCc2c(ccc3cc[nH]c23)C1 (stereo not drawn)",
    "CLASS ASSIGNMENT": "inactive"
  },
  {
    "MOLECULE": "Cc1ccc(S(=O)(=O)N[C@H](C(=O)O)c2ccccc2)cc1",
    "CLASS ASSIGNMENT": "inactive"
  }
]
